microsomal CLint overview
procedureText: in vitro
Type: in vitro ADME, human
experimentalSetup: human, microsomes; HLM 0.50 mg/mL, NADPH 1 mM, 1 μM compound, pH 7.4, 37° C., 60 min; read-out: Intrinsic clearance (Clint)
Give your result in µL/min/mg as a bare value.

Example compounds with recorded microsomal CLint:
{"testSmiles": "CCN(CC)C(=O)[C@@H]1C=C2c3cccc4[nH]cc(c34)C[C@H]2N(Cc2cccc(C)c2)C1", "reportedResult": 91.4}
{"testSmiles": "CCN(CC)C(=O)[C@@H]1C=C2c3cccc4[nH]cc(c34)C[C@H]2N(Cc2ccc(F)c(F)c2)C1", "reportedResult": 73.9}

Query: # query: microsomal CLint of entry CCN(CC)C(=O)[C@@H]1C=C2c3cccc4[nH]cc(c34)C[C@H]2N(Cc2ccc3ccccc3c2)C1
Result: 43.9

Query: # query: microsomal CLint of entry CCN(CC)C(=O)[C@@H]1C=C2c3cccc4[nH]cc(c34)C[C@H]2N(Cc2ccc(C)cc2)C1
Result: 63.5

====

targetOfAssay: 5-HT2A receptor (Homo sapiens, UniProt P28223)
Sequence (P28223 whole entry): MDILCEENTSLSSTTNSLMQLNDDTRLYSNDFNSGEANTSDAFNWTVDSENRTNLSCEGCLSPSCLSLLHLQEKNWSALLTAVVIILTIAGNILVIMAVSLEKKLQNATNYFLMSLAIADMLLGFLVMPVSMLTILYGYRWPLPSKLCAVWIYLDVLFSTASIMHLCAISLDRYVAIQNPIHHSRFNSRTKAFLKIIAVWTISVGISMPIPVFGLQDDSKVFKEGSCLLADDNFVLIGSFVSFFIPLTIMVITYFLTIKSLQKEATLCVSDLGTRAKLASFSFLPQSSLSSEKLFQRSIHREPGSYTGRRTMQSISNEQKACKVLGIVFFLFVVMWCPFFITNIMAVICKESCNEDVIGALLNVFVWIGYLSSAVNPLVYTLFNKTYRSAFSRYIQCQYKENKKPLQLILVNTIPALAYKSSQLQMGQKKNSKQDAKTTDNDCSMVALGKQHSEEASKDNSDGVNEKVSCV
procedureText: cell-based
Assay type: cell-based
experimentalSetup: agonist, beta-arrestin recruitment, max dose; read-out: 5-HT2A Arrestin % Act @ Max Dose
Emax overview
Give your result in % as a bare value.

Example molecules with recorded Emax:
{"testSmiles": "CCN(CC)C(=O)[C@@H]1C=C2c3cccc4[nH]cc(c34)C[C@H]2N(Cc2cccc(OC)c2)C1", "reportedResult": 89.6}
{"testSmiles": "CCN(CC)C(=O)[C@@H]1C=C2c3cccc4[nH]cc(c34)C[C@H]2N(Cc2ccccc2OC)C1", "reportedResult": 47.1}
{"testSmiles": "CCN(CC)C(=O)[C@@H]1C=C2c3cccc4[nH]c(Br)c(c34)C[C@H]2N(CCC(F)(F)F)C1", "reportedResult": 49.4}
{"testSmiles": "CCC[C@@H](C)NC(=O)[C@@H]1C=C2c3cccc4[nH]cc(c34)C[C@H]2N(CCC)C1", "reportedResult": 110}
{"testSmiles": "CCN(CC)C(=O)[C@@H]1C=C2c3cccc4[nH]cc(c34)C[C@H]2N(Cc2ccccc2)C1", "reportedResult": 26.1}

Query: I'm curious: which Emax was measured for CCCN1C[C@H](C(=O)N2[C@@H](C)C[C@@H]2C)C=C2c3cccc4[nH]cc(c34)C[C@H]21 tested on 5-HT2A receptor (Homo sapiens, UniProt P28223)?
Result: 117

Query: I'm curious: which Emax was measured for CC[C@@H](C)NC(=O)[C@@H]1C=C2c3cccc4[nH]c(Br)c(c34)C[C@H]2N(C)C1 tested on 5-HT2A receptor (Homo sapiens, UniProt P28223)?
Result: 51.8

Query: I'm curious: which Emax was measured for CCC(CC)NC(=O)[C@@H]1C=C2c3cccc4[nH]c(Br)c(c34)C[C@H]2N(C)C1 tested on 5-HT2A receptor (Homo sapiens, UniProt P28223)?
Result: 40.7

Query: I'm curious: which Emax was measured for CCCN1C[C@@H](C(=O)N[C@H](C)CC)C=C2c3cccc4[nH]cc(c34)C[C@H]21 tested on 5-HT2A receptor (Homo sapiens, UniProt P28223)?
Result: 113

Query: I'm curious: which Emax was measured for CCN(CC)C(=O)[C@@H]1C=C2c3cccc4[nH]cc(c34)C[C@H]2N(Cc2ccccc2O)C1 tested on 5-HT2A receptor (Homo sapiens, UniProt P28223)?
Result: 47.6

Query: I'm curious: which Emax was measured for CCNC(=O)[C@@H]1C=C2c3cccc4[nH]cc(c34)C[C@H]2N(Cc2cccc(O)c2)C1 tested on 5-HT2A receptor (Homo sapiens, UniProt P28223)?
Result: 52

Query: I'm curious: which Emax was measured for C=CCN1C[C@@H](C(=O)N[C@H](C)CC)C=C2c3cccc4[nH]cc(c34)C[C@H]21 tested on 5-HT2A receptor (Homo sapiens, UniProt P28223)?
Result: 81.1

Query: I'm curious: which Emax was measured for CCN(CC)C(=O)[C@H]1C=C2c3cccc4[nH]cc(c34)C[C@H]2N(CCCF)C1 tested on 5-HT2A receptor (Homo sapiens, UniProt P28223)?
Result: 83.3

Query: I'm curious: which Emax was measured for CCN(CC)C(=O)[C@@H]1C=C2c3cccc4[nH]cc(c34)C[C@H]2N(Cc2ccc(Cl)cc2)C1 tested on 5-HT2A receptor (Homo sapiens, UniProt P28223)?
Result: 41.2

Query: I'm curious: which Emax was measured for CCN(CC)C(=O)[C@@H]1C=C2c3cccc4[nH]cc(c34)C[C@H]2N(Cc2ccc(OC)cc2)C1 tested on 5-HT2A receptor (Homo sapiens, UniProt P28223)?
Result: 42.3

====

procedureText: in vitro
Assay type: in vitro ADME, rat
experimentalSetup: RLM (male Sprague-Dawley) 0.50 mg/mL, NADPH 1 mM, 1 μM compound, pH 7.4, 37° C., 60 min
experimentalReadout: half-life (t1/2) (min)
Give your result in min as a bare value.

Example molecules with recorded half-life (t1/2):
{"testSmiles": "CCCN1C[C@@H](C(=O)N[C@H](C)CC)C=C2c3cccc4[nH]cc(c34)C[C@H]21", "half-life (t1/2) / min": 1.4}
{"testSmiles": "C[C@H]1C[C@H](C)N1C(=O)[C@@H]1C=C2c3cccc4[nH]cc(c34)C[C@H]2N(C)C1", "half-life (t1/2) / min": 54.9}
{"testSmiles": "CCCN1C[C@H](C(=O)NC(CC)CC)C=C2c3cccc4[nH]cc(c34)C[C@H]21", "half-life (t1/2) / min": 1.655}
{"testSmiles": "CCN(CC)C(=O)[C@@H]1C=C2c3cccc4[nH]cc(c34)C[C@H]2N(Cc2cccc(OC)c2)C1", "half-life (t1/2) / min": 5.3}

Query: # query: half-life (t1/2) of entry CCN(CC)C(=O)[C@@H]1C=C2c3cccc4[nH]cc(c34)C[C@H]2N(Cc2ccnc(OC)c2)C1
Result: 17.2

Query: # query: half-life (t1/2) of entry CCN(CC)C(=O)[C@@H]1C=C2c3cccc4[nH]cc(c34)C[C@H]2N(CCc2ccccc2OC)C1
Result: 1.159

Query: # query: half-life (t1/2) of entry CCCN1C[C@H](C(=O)N(CC)CC)C=C2c3cccc4[nH]cc(c34)C[C@H]21
Result: 16.2

Query: # query: half-life (t1/2) of entry CCN(CC)C(=O)[C@@H]1C=C2c3cccc4[nH]cc(c34)C[C@H]2N(CCc2cccc(OC)c2)C1
Result: 1.2

Query: # query: half-life (t1/2) of entry CCN(CC)C(=O)[C@@H]1C=C2c3cccc4[nH]cc(c34)C[C@H]2N(CCC(F)(F)F)C1
Result: 5.9

Query: # query: half-life (t1/2) of entry CCN(CC)C(=O)[C@@H]1C=C2c3cccc4[nH]cc(c34)C[C@H]2NC1
Result: 90.5

Query: # query: half-life (t1/2) of entry CCN(CC)C(=O)[C@@H]1C=C2c3cccc4[nH]cc(c34)C[C@H]2N(CCc2ccccn2)C1
Result: 4.2

Query: # query: half-life (t1/2) of entry CCN(CC)C(=O)[C@H]1C=C2c3cccc4[nH]cc(c34)C[C@H]2N(CCCF)C1
Result: 9.673

Query: # query: half-life (t1/2) of entry [2H]C([2H])([2H])Oc1cccc(CN2C[C@H](C(=O)N(CC)CC)C=C3c4cccc5[nH]cc(c45)C[C@H]32)c1
Result: 6.2

Query: # query: half-life (t1/2) of entry CCN(CC)C(=O)[C@@H]1C=C2c3cccc4[nH]cc(c34)C[C@H]2N(CC2CC2)C1
Result: 27.7

====

procedureText: in vitro
Assay type: in vitro ADME, human
experimentalSetup: human, microsomes; HLM 0.50 mg/mL, NADPH 1 mM, 1 μM compound, pH 7.4, 37° C., 60 min; read-out: half-life (t1/2)
half-life overview
Give your result in min as a bare value.

Example compounds with recorded half-life:
{"compound": "CCN(C)C(=O)[C@@H]1C=C2c3cccc4[nH]cc(c34)C[C@H]2N(CC2CCCC2)C1 [Compound 103]", "reportedResult": 11.4}
{"compound": "CCN(CC)C(=O)[C@@H]1C=C2c3cccc4[nH]cc(c34)C[C@H]2N(Cc2cccc(O)c2)C1 [Compound 62]", "reportedResult": 10.3}
{"compound": "CCN(CC)C(=O)[C@@H]1C=C2c3cccc4[nH]cc(c34)C[C@H]2N(Cc2cccc3ccccc23)C1 [Compound 101]", "reportedResult": 16.4}

Now look at this one.
Query: # query: half-life of entry O=C([C@H]1C=C2c3cccc4[nH]cc(c34)C[C@H]2N(Cc2ccccc2)C1)N1CCCC1 [Compound 84a]
Result: 9

====

targetOfAssay: 5-HT2A receptor (Homo sapiens, UniProt P28223)
procedureText: cell-based
Format: cell-based
experimentalSetup: agonist, beta-arrestin recruitment, max dose; read-out: 5-HT2A Arrestin % Act @ Max Dose
Short version: Emax at least 90% is class 1, less is class 0.

{"compound": "CCN(CC)C(=O)[C@@H]1C=C2c3cccc4[nH]cc(c34)C[C@H]2N(Cc2cccc(O)c2)C1 [Compound 62]", "assignedCategory": "class 0"}

Query: In plain terms: is recorded Emax at least 90% for CCC[C@@H](C)NC(=O)[C@@H]1C=C2c3cccc4[nH]c(Br)c(c34)C[C@H]2N(C)C1 [Compound 45] ?
Result: class 0

Query: In plain terms: is recorded Emax at least 90% for CCN(CC)C(=O)[C@@H]1C=C2c3cccc4[nH]cc(c34)C[C@H]2N(CCCF)C1 [Compound 2] ?
Result: class 1

Query: In plain terms: is recorded Emax at least 90% for CC[C@@H](C)NC(=O)[C@H]1C=C2c3cccc4[nH]cc(c34)C[C@H]2N(CC)C1 [Compound 5a] ?
Result: class 0

Query: In plain terms: is recorded Emax at least 90% for CCN(CC)C(=O)[C@@H]1C=C2c3cccc4[nH]cc(c34)C[C@H]2N(CCc2ccc(OC)cc2)C1 [Compound 21] ?
Result: class 1
